# target.of.assay: APOL1 (Homo sapiens, UniProt O14791)
# protocol.details: MultiTox-Fluor Multiplex Cytotoxicity Assay in tet-inducible APOL1 T-REx-HEK293 cells (cell rescue, ratio of dead to live cells)
# assay.context: tet-inducible transgenic APOL1 T-REx-HEK293 cell lines, 50 ng/mL tet, 24 hours; read-out: IP50 (i.e., IC50 for cell proliferation)
# Experimental: The MultiTox-Fluor Multiplex Cytotoxicity Assay is a single-reagent-addition, homogeneous, fluorescence assay that measures the number of live and dead cells simultaneously in culture wells. […] The MultiTox reagent was added to each well and placed back in the incubator for an additional 30 minutes. The plate was read on the EnVision plate reader. A ratio of dead to live cells was used to normalize, and data was imported, analyzed, and fit using Genedata Screener (Basel, Switzerland) software. […]
pIC50: −log10 of the molar value.
experimental.endpoint: pIC50

Any idea what pIC50 came out for CCc1cc2c(s1)CCO[C@@]21CCN(CC(F)F)[C@@H](C)C1 [Compound 294] on APOL1 (Homo sapiens, UniProt O14791)? 6.00 to 6.30

Any idea what pIC50 came out for COc1cccc(CN2CC[C@]3(C[C@@H]2C)OCCc2cc(Cl)sc23)n1 [Compound 689] on APOL1 (Homo sapiens, UniProt O14791)? 6.00 to 6.30

Any idea what pIC50 came out for C[C@H]1C[C@@]2(CCN1CC(O)c1ccc(F)cc1)OCCc1cc(CC(F)F)sc12 (some centres unmarked) [Compound 602] on APOL1 (Homo sapiens, UniProt O14791)? > 7.00

***
Any idea what pIC50 came out for CCc1cc2c(s1)CCOC21CCN(Cc2cn(CC(C)(C)S(C)(=O)=O)nn2)CC1 [Compound 1081] on APOL1 (Homo sapiens, UniProt O14791)? 6.30 to 7.00

Any idea what pIC50 came out for CCc1cc2c(s1)CCO[C@@]21CCN(C[C@H]2C[C@@H](NC(=O)c3cnc(C)s3)C2)[C@@H](C)C1 [Compound 320] on APOL1 (Homo sapiens, UniProt O14791)? > 7.00

Any idea what pIC50 came out for CCOCCC(O)Cn1cc(CN2CC[C@]3(C[C@@H]2C)OCCc2c3sc(C(F)(F)F)c2CO)cn1 (some centres unmarked) [Compound 957] on APOL1 (Homo sapiens, UniProt O14791)? > 7.00

Any idea what pIC50 came out for CC(=O)Nc1ccc(CN2CC[C@]3(C[C@@H]2C)OC[C@H](O)c2cc(Cl)sc23)cc1 [Compound 799] on APOL1 (Homo sapiens, UniProt O14791)? > 7.00

Any idea what pIC50 came out for CCc1cc2c(s1)CCO[C@@]21CCN(Cc2cn(CC3(O)COC3)nn2)[C@@H](C)C1 [Compound 146] on APOL1 (Homo sapiens, UniProt O14791)? > 7.00

* * *

# target.of.assay: APOL1 (Homo sapiens, UniProt O14791)
# protocol.details: MultiTox-Fluor Multiplex Cytotoxicity Assay in tet-inducible APOL1 T-REx-HEK293 cells (cell rescue, ratio of dead to live cells)
# assay.context: tet-inducible transgenic APOL1 T-REx-HEK293 cell lines, 50 ng/mL tet, 24 hours; read-out: IP50 (i.e., IC50 for cell proliferation)
# Protocol: The MultiTox-Fluor Multiplex Cytotoxicity Assay is a single-reagent-addition, homogeneous, fluorescence assay that measures the number of live and dead cells simultaneously in culture wells. […] The MultiTox reagent was added to each well and placed back in the incubator for an additional 30 minutes. The plate was read on the EnVision plate reader. A ratio of dead to live cells was used to normalize, and data was imported, analyzed, and fit using Genedata Screener (Basel, Switzerland) software. […]
pIC50: −log10 of the molar value.
experimental.endpoint: pIC50

Below, each entry is followed by its recorded pIC50 result.
Query (compound): CCc1cc2c(s1)CCO[C@@]21CCN(CC2CN(C(=O)c3ncc(OC)o3)C2)[C@@H](C)C1 ; field requested: pIC50 > 7.00

Query (compound): C[C@H]1C[C@@]2(CCN1Cc1cnn(Cc3cnccn3)c1)OCCc1c2sc(C(F)(F)F)c1CO ; field requested: pIC50 > 7.00

Query (compound): CCc1cc2c(s1)CCO[C@@]21CCN(Cc2cn(Cc3ncc(C)o3)nn2)[C@@H](C)C1 ; field requested: pIC50 6.30 to 7.00

Now consider a different compound.
Query (compound): CCc1cc2c(s1)CCO[C@@]21CCN(Cc2cn(C(C)(C)CCS(C)(=O)=O)nn2)[C@@H](C)C1 ; field requested: pIC50 6.00 to 6.30

* * *

The entries below are paired with their reported pIC50.
# target.of.assay: UniProtKB O14791
# Sequence (O14791 1-398 S342G/I384M): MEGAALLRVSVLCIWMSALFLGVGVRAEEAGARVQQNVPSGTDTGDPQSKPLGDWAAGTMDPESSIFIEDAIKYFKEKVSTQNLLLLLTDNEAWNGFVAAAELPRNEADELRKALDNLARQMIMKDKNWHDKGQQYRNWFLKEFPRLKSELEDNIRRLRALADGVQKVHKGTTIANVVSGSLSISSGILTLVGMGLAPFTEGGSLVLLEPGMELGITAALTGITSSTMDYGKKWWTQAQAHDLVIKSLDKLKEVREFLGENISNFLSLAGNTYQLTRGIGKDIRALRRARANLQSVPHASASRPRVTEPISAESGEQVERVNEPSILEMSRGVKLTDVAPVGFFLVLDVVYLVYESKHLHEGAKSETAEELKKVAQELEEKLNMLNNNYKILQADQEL
# protocol.details: MultiTox-Fluor Multiplex Cytotoxicity Assay in tet-inducible APOL1 T-REx-HEK293 cells (cell rescue, ratio of dead to live cells)
# assay.context: tet-inducible transgenic APOL1 T-REx-HEK293 cell lines, 50 ng/mL tet, 24 hours; read-out: IP50 (i.e., IC50 for cell proliferation)
pIC50: −log10 of the molar value.

Below, each entry is followed by its recorded pIC50 result.
Query (compound): CCc1cc2c(s1)CCOC21CCN(Cc2ccc(C(=O)NC(C)CCO)nc2)CC1 (stereo not shown) [Compound 1054] ; field requested: pIC50 > 7.00

Query (compound): Cc1ncc(CN2CC[C@]3(C[C@@H]2C)OCCc2c3sc(Cl)c2CO)cn1 [Compound 738] ; field requested: pIC50 6.30 to 7.00

Query (compound): C[C@H]1C[C@@]2(CCN1Cc1ccc(OCCO)cc1)OCCc1cc(Cl)sc12 [Compound 644] ; field requested: pIC50 > 7.00

***
Query (compound): CCc1cc2c(s1)CCO[C@@]21CCN(C[C@H]2C[C@@H](NS(=O)(=O)C(C)C)C2)[C@@H](C)C1 [Compound 395] ; field requested: pIC50 > 7.00

Query (compound): CCc1cc2c(s1)CCO[C@@]21CCN(C[C@H]2C[C@@H](NC(=O)COCC(F)(F)F)C2)[C@@H](C)C1 [Compound 301] ; field requested: pIC50 6.30 to 7.00

* * *

# target.of.assay: APOL1 (Homo sapiens, UniProt O14791)
# Sequence (O14791 1-398 S342G/I384M): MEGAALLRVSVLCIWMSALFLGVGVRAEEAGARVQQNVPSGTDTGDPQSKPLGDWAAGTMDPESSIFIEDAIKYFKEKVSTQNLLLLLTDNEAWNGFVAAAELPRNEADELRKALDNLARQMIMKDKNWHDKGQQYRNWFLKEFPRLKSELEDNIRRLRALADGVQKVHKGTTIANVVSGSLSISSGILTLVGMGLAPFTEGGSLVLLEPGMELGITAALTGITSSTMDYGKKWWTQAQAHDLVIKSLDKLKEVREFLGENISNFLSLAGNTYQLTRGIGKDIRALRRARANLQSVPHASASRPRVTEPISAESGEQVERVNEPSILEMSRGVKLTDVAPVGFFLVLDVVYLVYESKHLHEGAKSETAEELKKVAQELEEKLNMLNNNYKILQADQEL
# protocol.details: MultiTox-Fluor Multiplex Cytotoxicity Assay in tet-inducible APOL1 T-REx-HEK293 cells (cell rescue, ratio of dead to live cells)
# assay.context: tet-inducible transgenic APOL1 T-REx-HEK293 cell lines, 50 ng/mL tet, 24 hours; read-out: IP50 (i.e., IC50 for cell proliferation)
pIC50: −log10 of the molar value.
The entries below are paired with their reported pIC50.

Query (compound): CCc1cc2c(s1)CCO[C@@]21CCN(Cc2cnn(CCS(C)(=O)=O)c2)[C@@H](C)C1 ; field requested: pIC50 > 7.00

Query (compound): CCc1cc2c(s1)CCO[C@@]21CCN(Cc2cnn(C)c2)[C@@H](C)C1 ; field requested: pIC50 > 7.00

* * *

# target.of.assay: UniProt O14791
# Sequence (O14791 1-398 S342G/I384M): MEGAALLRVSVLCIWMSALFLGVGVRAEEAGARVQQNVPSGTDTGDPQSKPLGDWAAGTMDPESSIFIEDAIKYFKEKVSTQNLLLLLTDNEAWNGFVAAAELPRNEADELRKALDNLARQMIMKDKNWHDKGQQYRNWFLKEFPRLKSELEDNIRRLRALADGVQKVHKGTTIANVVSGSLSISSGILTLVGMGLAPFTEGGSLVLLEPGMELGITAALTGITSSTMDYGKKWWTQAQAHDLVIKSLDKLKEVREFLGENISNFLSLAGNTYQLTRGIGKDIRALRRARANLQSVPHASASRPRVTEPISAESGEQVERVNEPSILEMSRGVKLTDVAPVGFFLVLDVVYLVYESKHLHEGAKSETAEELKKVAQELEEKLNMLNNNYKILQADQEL
# protocol.details: MultiTox-Fluor Multiplex Cytotoxicity Assay in tet-inducible APOL1 T-REx-HEK293 cells (cell rescue, ratio of dead to live cells)
# assay.context: tet-inducible transgenic APOL1 T-REx-HEK293 cell lines, 50 ng/mL tet, 24 hours; read-out: IP50 (i.e., IC50 for cell proliferation)
pIC50: −log10 of the molar value.
The entries below are paired with their reported pIC50.

Below, each entry is followed by its recorded pIC50 result.
Query (compound): CCc1ncc(CN2CC[C@]3(C[C@@H]2C)OCCc2cc(Cl)sc23)cn1 [Compound 653] ; field requested: pIC50 6.30 to 7.00

Query (compound): CCc1cc2c(s1)CCO[C@@]21CCN(Cc2cn([C@H]3CC[C@@H]3O)nn2)[C@@H](C)C1 [Compound 144] ; field requested: pIC50 6.30 to 7.00

Query (compound): CC(=O)NC1CO[C@@]2(CCN(Cc3cnn(CCS(C)(=O)=O)c3)[C@@H](C)C2)c2sc(Cl)cc21 (stereo partly shown) [Compound 855] ; field requested: pIC50 > 7.00

Query (compound): Cc1nc(CN2CC[C@]3(C[C@@H]2C)OCCc2cc(CC(F)F)sc23)c(C)o1 [Compound 618] ; field requested: pIC50 6.00 to 6.30

Query (compound): CCc1cc2c(s1)CCO[C@@]21CCN(C[C@H]2C[C@@H](NC(=O)CC(C)(C)O)C2)[C@@H](C)C1 [Compound 346] ; field requested: pIC50 > 7.00

***
Query (compound): C[C@H]1C[C@@]2(CCN1Cc1cnc(NC(C)(C)CO)nc1)OCCc1sc(Cl)cc12 [Compound 515] ; field requested: pIC50 > 7.00

Query (compound): CCc1cc2c(s1)CCOC21CCN(Cc2csc(N3CCOCC3)n2)CC1 [Compound 1146] ; field requested: pIC50 6.00 to 6.30

Query (compound): Cc1cc2c(s1)[C@]1(CCN(Cc3cnn(CCS(C)(=O)=O)c3)[C@@H](C)C1)OCC2 [Compound 1026] ; field requested: pIC50 > 7.00

Query (compound): CCc1cc2c(s1)CCOC21CCN(CC2CC2)CC1 [Compound 1155] ; field requested: pIC50 6.00 to 6.30

Query (compound): CCc1cc2c(s1)CCOC21CCN(Cc2cn(CCN3CCC(O)C3)nn2)CC1 (stereo not shown) [Compound 1104] ; field requested: pIC50 6.00 to 6.30

Query (compound): CNC(=O)[C@@H](O)CN1CC[C@]2(C[C@@H]1C)OCCc1cc(CC(F)F)sc12 [Compound 612] ; field requested: pIC50 6.30 to 7.00

Query (compound): C[C@H]1C[C@@]2(CCN1Cc1cn(CCS(C)(=O)=O)nn1)OCCc1cc(Cl)sc12 [Compound 696] ; field requested: pIC50 6.30 to 7.00
